# TARGET_ENTITY: wild-type ALK2 (aa172-499) (Homo sapiens (Human), UniProt Q04771)
# Sequence (Q04771 172-499): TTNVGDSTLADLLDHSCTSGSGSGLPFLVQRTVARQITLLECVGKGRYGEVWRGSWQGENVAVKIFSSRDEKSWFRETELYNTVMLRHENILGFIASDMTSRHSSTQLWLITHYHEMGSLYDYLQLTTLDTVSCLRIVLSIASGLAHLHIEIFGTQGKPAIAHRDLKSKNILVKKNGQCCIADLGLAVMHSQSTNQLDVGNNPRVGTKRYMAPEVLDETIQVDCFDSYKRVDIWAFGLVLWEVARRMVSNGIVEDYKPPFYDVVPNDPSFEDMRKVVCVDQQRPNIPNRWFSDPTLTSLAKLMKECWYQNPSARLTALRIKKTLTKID
# EXPERIMENTAL_DETAILS: Caliper biochemical peptide phosphorylation assay, ALK2
# PARTICULARS: 15 μm ATP, 60 min at 30° C.; read-out: ALK2 EPK (IC50)
Readings of pIC50 for the listed compounds
As a rule, pIC50 stands for the negative log10 of the concentration, concentration in M.

COMPOUND | MEASURED_ENDPOINT | OBSERVED
Nc1ncc(-c2ccc([C@@]34C[C@@H]3CN(CCF)C4)cc2)cc1C(=O)N[C@H]1CC[C@H](O)CC1 [Example 48] | pIC50 | 7.47
Nc1ncc(-c2ccc([C@]34C[C@H]3CN(C3CCOCC3)C4)cc2)cc1C(=O)N[C@H]1CC[C@H](O)CC1 [Example 33] | pIC50 | 7.70
Nc1ncc(-c2ccc([C@@]34C[C@@H]3CN(C3CCOCC3)C4)cc2)cc1C(=O)N[C@H]1CC[C@@H](O)CC1 [Example 22] | pIC50 | 7.80

## Task What value of pIC50 has been reported for the following compound? Nc1ncc(-c2ccc([C@@]34C[C@@H]3CN(C3CCC(F)(F)CC3)C4)cc2)cc1C(=O)N[C@H]1CC[C@H](O)CC1 [Example 25]
## Result 7.74

###

# TARGET_ENTITY: wild-type ALK2 (aa172-499) (Homo sapiens (Human))
# EXPERIMENTAL_DETAILS: ADPGlo biochemical autophosphorylation assay, ALK2
# PARTICULARS: 15 μm ATP, 60 min at 32° C.
Labelling: IC50 reported below 10 nM becomes YES; at or above becomes NO.

For orientation, consider the following solved cases.
SMILES_NOTATION | TARGET_ENTITY | DISCRETE_LABEL
Nc1ncc(-c2ccc(OCCCN3CCOCC3)cc2)cc1C(=O)NC1CCCCC1 | wild-type ALK2 (aa172-499) (Homo sapiens (Human)) | NO
Nc1ncc(-c2ccc([C@@]34C[C@@H]3CN(C3CCOCC3)C4)cc2)cc1C(=O)N[C@@H]1CC[C@@H](O)[C@@H](F)C1 | wild-type ALK2 (aa172-499) (Homo sapiens (Human)) | YES
CC(C)N1C[C@H]2C[C@@]2(c2ccc(-c3cnc(N)c(C(=O)N[C@H]4CC[C@H](O)CC4)c3)cc2)C1 | wild-type ALK2 (aa172-499) (Homo sapiens (Human)) | NO
C[C@H](c1ccc(-c2cnc(N)c(C(=O)N[C@H]3CC[C@H](O)CC3)c2)cc1)N1CC2(COC2)C1 | wild-type ALK2 (aa172-499) (Homo sapiens (Human)) | NO
Nc1ncc(-c2ccc([C@@]34C[C@@H]3CN(C3CCOCC3)C4)cc2)cc1C(=O)N[C@H]1CC[C@H](O)CC1 | wild-type ALK2 (aa172-499) (Homo sapiens (Human)) | NO
C#CCN1C[C@H]2C[C@@]2(c2ccc(-c3cnc(N)c(C(=O)N[C@H]4CC[C@H](O)CC4)c3)cc2)C1 | wild-type ALK2 (aa172-499) (Homo sapiens (Human)) | NO

With those in mind, consider the next compound.
## Task # strict comparison: is reported IC50 < 10 nM? input = `Nc1ncc(-c2ccc([C@@]34C[C@@H]3CN(C3CCC(F)(F)CC3)C4)cc2)cc1C(=O)N[C@H]1CC[C@H](O)CC1`
## Result YES

###

System: ALK3 (aa198-525) (Homo sapiens (Human)) | Read-out: pIC50
As a rule, pIC50 stands for the negative log10 of the concentration, concentration in M.

## Task Form field: pIC50 recorded for `COCCN1C[C@@H]2C[C@]2(c2ccc(-c3cnc(N)c(C(=O)N[C@H]4CC[C@H](O)CC4)c3)cc2)C1` with ALK3 (aa198-525) (Homo sapiens (Human)) (enter value)
## Result 5.87

## Task Form field: pIC50 recorded for `Nc1ncc(-c2ccc(OCCCN3CCOCC3)cc2)cc1C(=O)NC1CCCCC1` with ALK3 (aa198-525) (Homo sapiens (Human)) (enter value)
## Result 5.55

## Task Form field: pIC50 recorded for `Nc1ncc(-c2ccc([C@]34C[C@H]3CN(CC3COC3)C4)cc2)cc1C(=O)N[C@H]1CC[C@H](O)CC1` with ALK3 (aa198-525) (Homo sapiens (Human)) (enter value)
## Result 5.89

## Task Form field: pIC50 recorded for `C[C@@H]1CCCN1Cc1ccc(-c2cnc(N)c(C(=O)N[C@H]3CC[C@](C)(O)CC3)c2)c(F)c1` with ALK3 (aa198-525) (Homo sapiens (Human)) (enter value)
## Result 5.00

## Task Form field: pIC50 recorded for `Nc1ncc(-c2ccc([C@]34C[C@H]3CN(C(CF)CF)C4)cc2)cc1C(=O)N[C@H]1CC[C@H](O)CC1` with ALK3 (aa198-525) (Homo sapiens (Human)) (enter value)
## Result 5.92

## Task Form field: pIC50 recorded for `C[C@@H]1CCCN1Cc1ccc(-c2cnc(N)c(C(=O)N[C@H]3CC[C@](C)(O)CC3)c2)cc1Cl` with ALK3 (aa198-525) (Homo sapiens (Human)) (enter value)
## Result 4.82

## Task Form field: pIC50 recorded for `Nc1ncc(-c2ccc([C@]34C[C@H]3CN(CCN3CCOCC3)C4)cc2)cc1C(=O)N[C@H]1CC[C@H](O)CC1` with ALK3 (aa198-525) (Homo sapiens (Human)) (enter value)
## Result 5.85

## Task Form field: pIC50 recorded for `Nc1ncc(-c2ccc(N3CCNCC3)cc2F)cc1C(=O)N[C@H]1CC[C@H](O)CC1` with ALK3 (aa198-525) (Homo sapiens (Human)) (enter value)
## Result 5.60

## Task Form field: pIC50 recorded for `Nc1ncc(-c2ccc([C@@]34C[C@@H]3CN(CC3COC3)C4)cc2)cc1C(=O)N[C@H]1CC[C@H](O)CC1` with ALK3 (aa198-525) (Homo sapiens (Human)) (enter value)
## Result 5.55

## Task Form field: pIC50 recorded for `Nc1ncc(-c2ccc([C@@]34C[C@@H]3CN(C3CCOCC3)C4)cc2)cc1C(=O)N[C@@H]1CC[C@@H](O)[C@@H](F)C1` with ALK3 (aa198-525) (Homo sapiens (Human)) (enter value)
## Result 6.59

## Task Form field: pIC50 recorded for `Nc1ncc(-c2cccc(C(=O)N3CCOCC3)c2)cc1C(=O)NC1CCCCC1` with ALK3 (aa198-525) (Homo sapiens (Human)) (enter value)
## Result 4.66

## Task Form field: pIC50 recorded for `Nc1ncc(-c2ccc([C@@]34C[C@@H]3CN(CCN3CCOCC3)C4)cc2)cc1C(=O)N[C@H]1CC[C@H](O)CC1` with ALK3 (aa198-525) (Homo sapiens (Human)) (enter value)
## Result 5.85

###

System: ALK3 (aa198-525) (Homo sapiens (Human), UniProt P36894) | Read-out: IC50
Sequence (P36894 198-525): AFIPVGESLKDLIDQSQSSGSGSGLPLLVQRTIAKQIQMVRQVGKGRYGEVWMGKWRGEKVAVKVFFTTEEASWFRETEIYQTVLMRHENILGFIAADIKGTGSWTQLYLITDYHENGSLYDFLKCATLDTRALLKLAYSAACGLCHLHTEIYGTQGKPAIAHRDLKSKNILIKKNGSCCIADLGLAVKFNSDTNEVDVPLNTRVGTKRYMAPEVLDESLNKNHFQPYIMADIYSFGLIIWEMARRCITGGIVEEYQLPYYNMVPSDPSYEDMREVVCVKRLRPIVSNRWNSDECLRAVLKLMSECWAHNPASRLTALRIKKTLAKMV
Please state the figure in nM; there is no need to write the unit.

Example cases with answers are listed next.
SMILES_NOTATION | UNIT_ABBREVIATION | IC50
Nc1ncc(-c2ccc([C@]34C[C@H]3CN(CCN3CCOCC3)C4)cc2)cc1C(=O)NC12CCC(O)(CC1)CC2 | nM | 995
Nc1ncc(-c2ccc([C@@]34C[C@@H]3CN(CCOCC(F)(F)F)C4)cc2)cc1C(=O)N[C@H]1CC[C@H](O)CC1 | nM | 1800

## Task Form field: IC50 recorded for `Nc1ncc(-c2ccc([C@@]34C[C@@H]3CN(CCC(F)(F)F)C4)cc2)cc1C(=O)N[C@H]1CC[C@H](O)CC1` with ALK3 (aa198-525) (Homo sapiens (Human), UniProt P36894) (enter value)
## Result 1300

## Task Form field: IC50 recorded for `Nc1ncc(-c2ccc([C@@]34C[C@@H]3CN(C(CF)CF)C4)cc2)cc1C(=O)N[C@H]1CC[C@H](O)CC1` with ALK3 (aa198-525) (Homo sapiens (Human), UniProt P36894) (enter value)
## Result 940

## Task Form field: IC50 recorded for `CN1CCN(C(=O)c2ccc(-c3cnc(N)c(C(=O)N[C@H]4CC[C@@H](O)CC4)c3)cc2)CC1` with ALK3 (aa198-525) (Homo sapiens (Human), UniProt P36894) (enter value)
## Result 6500

## Task Form field: IC50 recorded for `C[C@H](c1ccc(-c2cnc(N)c(C(=O)N[C@]3(C)CC[C@@H](O)CC3)c2)cc1)N1CC2(COC2)C1` with ALK3 (aa198-525) (Homo sapiens (Human), UniProt P36894) (enter value)
## Result 8200

## Task Form field: IC50 recorded for `Nc1ncc(-c2ccc([C@@]34C[C@@H]3CN(C3CCC(F)(F)CC3)C4)cc2)cc1C(=O)NC12CCC(O)(CC1)CC2` with ALK3 (aa198-525) (Homo sapiens (Human), UniProt P36894) (enter value)
## Result 1800

## Task Form field: IC50 recorded for `CC(F)(F)CN1C[C@H]2C[C@@]2(c2ccc(-c3cnc(N)c(C(=O)N[C@H]4CC[C@H](O)CC4)c3)cc2)C1` with ALK3 (aa198-525) (Homo sapiens (Human), UniProt P36894) (enter value)
## Result 2400

## Task Form field: IC50 recorded for `CC(C)N1C[C@@H]2C[C@]2(c2ccc(-c3cnc(N)c(C(=O)N[C@H]4CC[C@@H](O)CC4)c3)cc2)C1` with ALK3 (aa198-525) (Homo sapiens (Human), UniProt P36894) (enter value)
## Result 2900
